System: SK-OV-3 ovarian
ASSAY INFO: NCI-60 one-dose screen, 48 h
APPLIED CONDITIONS: 10 µM unless noted
The panel holds about 83,000 compounds, 20% with a hit somewhere; the sample as a whole holds those more often. The source made the active and inactive calls. Rule for the calls: active = growth percent below 10; inactive = the rest.
Please reply with one of these outcomes: t for active, f for inactive

Could you kindly confirm the outcome this assay logged for "Brc1ccc(-c2cc(-c3ccc4c(c3)OC=CO4)n[nH]2)s1" ? f

Could you kindly confirm the outcome this assay logged for CCc1cccc2c3c(sc12)C(c1ccc(F)cc1)C(C#N)=C(/N=C/c1ccc(Cl)cc1)O3 (stereo not given) ? f

Could you kindly confirm the outcome this assay logged for "CNCCN(C)c1ccc(Nc2cc(NC3CC3)n3ncc(C#N)c3n2)cc1NC(C)=O" ? t

Could you kindly confirm the outcome this assay logged for COc1ccc(C2C(C#N)=C(/N=C/c3ccc(Cl)cc3)Oc3c2sc2c(C)cccc32)cc1 (stereo not given) ? f

Could you kindly confirm the outcome this assay logged for "COc1cc(C(=O)c2cc(C(C)=O)c3ccc(C)cn23)cc(OC)c1OC" ? f

Could you kindly confirm the outcome this assay logged for "Cc1ccc(C(=O)CSc2nc3ccccc3c(=O)n2C)cc1" ? f

Could you kindly confirm the outcome this assay logged for "Cc1ccc(C)c(NC2=C(Cl)C(=O)c3nc(C)ccc3C2=O)c1" ? f

Could you kindly confirm the outcome this assay logged for "CN1CCN(c2ccc(Nc3nc(NCCNC(=O)c4ccccc4)c4sccc4n3)cc2)CC1" ? f

Could you kindly confirm the outcome this assay logged for "CC(=O)c1cc(C(=O)N2c3ccccc3Sc3ccccc32)n2c1ccc1ccccc12" ? f

Could you kindly confirm the outcome this assay logged for "COc1ccc(/C=N/NC(=O)c2c(N)nn(C)c2Nc2ccccc2)cc1Oc1ccccc1" ? f

Could you kindly confirm the outcome this assay logged for "Nc1ccc(Nc2ncnc3sc4c(c23)CCN(Cc2ccccc2)C4)cc1" ? f

Could you kindly confirm the outcome this assay logged for "O=C(/C=C/c1csc(Br)n1)NO" ? f

Could you kindly confirm the outcome this assay logged for "Cc1nc(/N=C(N)/N=C(\N)c2cccc(Br)c2)sc1C" ? f

Could you kindly confirm the outcome this assay logged for O=C1CSC(c2cn(-c3ccccc3)nc2-c2ccc(Cl)cc2)N1c1ccccc1 (stereo not given) ? f

Could you kindly confirm the outcome this assay logged for "COc1ccccc1/C=C1\Oc2ccc(O)c(O)c2C1=O" ? f

Could you kindly confirm the outcome this assay logged for "O=C(CCCCCCNC(=O)C(O)(O)C(F)(F)F)Nc1ncc(-c2ccc(Br)cc2)s1" ? t

Could you kindly confirm the outcome this assay logged for "CN1CCN(Cc2ccc(NC(=O)c3cncc(C#Cc4cnc(N)nc4)c3)cc2C(F)(F)F)CC1" ? t

Could you kindly confirm the outcome this assay logged for "CCCC[n+]1ccc(SCC(=O)n2ccc3ccccc32)c2ccccc21" ? f

Could you kindly confirm the outcome this assay logged for "COc1ccc(OC)c(CCn2cncc2-c2c[nH]c3ccc(Cl)cc23)c1" ? f

Could you kindly confirm the outcome this assay logged for "CNC(=O)c1cc(-n2ccc3cc(NC(=O)Nc4ccc(N5CCN(C)CC5)c(C(F)(F)F)c4)ccc32)ccn1" ? f

Could you kindly confirm the outcome this assay logged for "COc1ccc2[nH]cc(-c3nn4cc(-c5ccncc5)nc4s3)c2c1" ? f

Could you kindly confirm the outcome this assay logged for "C#C[C@]1(O)CC[C@H]2[C@@H]3CC=C4c5sc(Nc6ncccc6C)nc5CC[C@]4(C)[C@H]3CC[C@@]21C" ? t

Could you kindly confirm the outcome this assay logged for "O=S(=O)(Oc1ccc(-c2cn3ccoc3n2)cc1)C1CCCCC1" ? f

Could you kindly confirm the outcome this assay logged for "N#CC1=C2NCCCNc3oc(nc3C#N)Cc3ccccc3CC(=N1)O2" ? f

Could you kindly confirm the outcome this assay logged for "N#Cc1c(-c2ccc(Br)cc2)cc(-c2c[nH]c3ccccc23)nc1N" ? f
